Where do these numbers come from? They come from the supplement of paper PMC10567573.

# Lookup of reported protein stability index keyed by entry
B1: MGC27345 (parent)
chain: KYMPHLCQDSSGEVSCQCQLHPPR

Variants of: B1
Assay: protein stability index of a GFP-peptide fusion (GPS, HEK-293T) (PSI 1-6); higher = more stable;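 further: lentivirally expressed fusions sorted by FACS into six bins by GFP to DsRed ratio, PSI derived from sequencing read proportions per bin multiplied by bin number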
Conditions: c terminus: a fixed tail appended

biopolymer sequence: KYCPHLCQDSSGEVSCQCQLHPPR [M3C]
protein stability index: 2.94

biopolymer sequence: KYMPHLCQDSSGEVSCQCQLHPPL [R24L]
protein stability index: 3.85

biopolymer sequence: KYMPHLCQDSSGEVSCQCQLHDPR [P22D]
protein stability index: 4.1

biopolymer sequence: KYMMHLCQDSSGEVSCQCQLHPPR [P4M]
protein stability index: 2.54

biopolymer sequence: KYMPHLCQDSSIEVSCQCQLHPPR [G12I]
protein stability index: 1.47

biopolymer sequence: KYMPHLCQDSSGEVTCQCQLHPPR [S15T]
protein stability index: 1.41

biopolymer sequence: KYMPHLCQDSSGEVSCQWQLHPPR [C18W]
protein stability index: 2.44

biopolymer sequence: KYMPHLCQDQSGEVSCQCQLHPPR [S10Q]
protein stability index: 2.26

biopolymer sequence: KYMPHLCQDSSGEVSCQCQHHPPR [L20H]
protein stability index: 3.1

biopolymer sequence: KYMPHLRQDSSGEVSCQCQLHPPR [C7R]
protein stability index: 3.06

biopolymer sequence: KYMPHLCQDSSGEVSCQCQKHPPR [L20K]
protein stability index: 2.04
